IC50 values for the binders below.
Target: T1, human CD47 (hCD47) expressed on cells (human, UniProt Q08722 19-323)
T1 construct: Transfected CHO cells or endogenous CD47 of human cells; also called CHO-hCD47; CD47 on Raji cells
Assay: flow cytometry, Raji cells, competition with hSIRPα
Assay Readout: IC50 (µg/mL)

Binder	Assay Result
h20-VH2-VL3 (candidate 20.8) (antibody, human IgG4 S228P, kappa, V domains shown, hIgG4-S228P/kappa; also called h20-H2-L3) VH: QVQLVQSGAEVKKPGASVKVSCKASGYSFTDYYINWVRQAPGQGLEWMGRIYPGIGNTYYNKKFKGRVTITRDTSASTAYMELSSLRSEDTAVYYCARGHYGRGMDYWGQGTLVTVSS VL: EIVLTQSPDSLAVSLGERATINCKSSQSLLNSIDQKNYLAWYQQKAGQSPKLLIYFASTKESGVPDRFSGSGSGTDFTLTIDSLQAEDVAVYYCQQHYSTPWTFGGGTKVEIKR	0.079
h20-VH5-VL5 (candidate 20.25) (antibody, human IgG4 S228P, kappa, V domains shown, hIgG4-S228P/kappa; also called h20-H5-L5) VH: QVQLVQSGAEVKKPGASVKVSCKASGYSFTDYYINWVRQAPGQGLEWMGRIYPGIGNTYYNKKFKGRVTMTRYTSISTAYMELSRLRSDDTAVYFCARGHYGRGMDYWGQGTTVTVSS VL: DIVMTQSPDSLAVSLGERATINCKSSQSLLNSIDQKNYLAWYQQKPGQPPKLLIYFASTKESGVPDRFSGSGSGTDFTLTISGLQAEDVAVYFCQQHYSTPWTFGGGTKVEIRR	0.112

meta.source: patent US20220356245A1
